Listing of entries alongside the reported IC50.
# Experimental system: Mitogen-activated protein kinase 9 (Homo sapiens)
# Sequence (P45984 whole entry): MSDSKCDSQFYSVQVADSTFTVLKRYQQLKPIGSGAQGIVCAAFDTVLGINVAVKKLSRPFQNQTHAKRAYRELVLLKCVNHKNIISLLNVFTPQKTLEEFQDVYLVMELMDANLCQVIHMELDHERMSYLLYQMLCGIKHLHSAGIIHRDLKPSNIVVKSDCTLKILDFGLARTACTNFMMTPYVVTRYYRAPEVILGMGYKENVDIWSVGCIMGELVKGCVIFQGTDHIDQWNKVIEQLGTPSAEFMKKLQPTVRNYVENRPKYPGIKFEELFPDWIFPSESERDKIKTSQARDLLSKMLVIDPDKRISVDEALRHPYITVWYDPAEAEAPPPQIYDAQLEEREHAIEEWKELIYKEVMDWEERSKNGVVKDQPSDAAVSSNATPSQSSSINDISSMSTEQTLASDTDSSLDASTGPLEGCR
# Procedure summary: Inhibition of recombinant JNK2 after 60 mins by TR-FRET assay
Output spec: scalar in µM, unitless text.

Structure string: COc1ccc(CC(=O)Nc2ccsc2-c2nc(N)n[nH]2)cc1
IC50, µM: 8.7

Name the reported IC50 value associated with the compound `CCOC(=O)c1sccc1NC(=O)Cc1ccccc1`
46.6

Please give the measured IC50 for this compound: `COC(=O)c1ncsc1NC(=O)Cc1cccc2cnccc12`
5.3

I would be grateful if you could share the reported IC50 for `COc1ccc(CC(=O)Nc2ccsc2-c2cnccn2)cc1` .
5.7

Return reported IC50; argument: `COc1ccc(CC(=O)Nc2ccsc2-c2ncco2)cc1`
11.9

Give its IC50 value. Item: `COC(=O)c1sccc1NC(=O)Cc1cccs1`
21.4

---

Here the recorded pIC50 is given for each entry.
# Experimental system: Mitogen-activated protein kinase 10 (Homo sapiens, UniProt P53779)
# Sequence (P53779 whole entry): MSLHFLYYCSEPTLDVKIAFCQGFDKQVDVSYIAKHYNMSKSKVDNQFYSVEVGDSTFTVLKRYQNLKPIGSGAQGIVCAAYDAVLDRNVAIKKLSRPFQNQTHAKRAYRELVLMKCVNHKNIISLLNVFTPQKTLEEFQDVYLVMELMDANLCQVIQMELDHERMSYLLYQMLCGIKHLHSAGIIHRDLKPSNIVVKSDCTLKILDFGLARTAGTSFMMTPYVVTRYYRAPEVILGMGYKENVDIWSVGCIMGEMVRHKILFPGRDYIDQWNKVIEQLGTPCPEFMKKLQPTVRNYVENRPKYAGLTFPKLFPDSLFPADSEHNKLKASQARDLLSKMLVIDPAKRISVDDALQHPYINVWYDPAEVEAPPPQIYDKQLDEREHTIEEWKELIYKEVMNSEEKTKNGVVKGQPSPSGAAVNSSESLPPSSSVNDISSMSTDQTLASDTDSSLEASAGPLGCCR
# Procedure summary: Inhibition of recombinant JNK3 after 60 mins by TR-FRET assay
The quantity pIC50 is defined as the negative base-10 logarithm of the molar concentration.

Sample records with pIC50:
Structure string: O=C(Cc1cccc2ccccc12)Nc1ccsc1-c1nnco1
Experimental system: Mitogen-activated protein kinase 10 (Homo sapiens, UniProt P53779)
pIC50: 5.28

Structure string: COC(=O)c1n[nH]cc1NC(=O)Cc1cccc2ccccc12
Experimental system: Mitogen-activated protein kinase 10 (Homo sapiens, UniProt P53779)
pIC50: 5.27

Structure string: O=C(Cc1cccc2ccccc12)Nc1ccsc1-n1ccnc1
Experimental system: Mitogen-activated protein kinase 10 (Homo sapiens, UniProt P53779)
pIC50: 5.05

Structure string: COC(=O)c1sccc1NC(=O)Cc1cccc2ccccc12
Experimental system: Mitogen-activated protein kinase 10 (Homo sapiens, UniProt P53779)
pIC50: 5.82

Structure string: COC(=O)c1cnccc1NC(=O)Cc1cccc2ccccc12
Experimental system: Mitogen-activated protein kinase 10 (Homo sapiens, UniProt P53779)
pIC50: 5.19

Please tell me: pIC50 of `COc1ccc(CC(=O)Nc2ccsc2-c2cnccn2)cc1` , system Mitogen-activated protein kinase 10 (Homo sapiens, UniProt P53779)?
5.82

// fetch Mitogen-activated protein kinase 10 (Homo sapiens, UniProt P53779) pIC50 for `Cc1n[nH]c(-c2sccc2NC(=O)Cc2cccc3ccccc23)n1`
6.26

Kindly state the measured pIC50 obtained for `COCCNC(=O)c1sccc1NC(=O)Cc1ccccc1` with Mitogen-activated protein kinase 10 (Homo sapiens, UniProt P53779).
5.42

Lab note: need pIC50 with Mitogen-activated protein kinase 10 (Homo sapiens, UniProt P53779) for entry `C/C(=N/O)c1sccc1NC(=O)Cc1ccccc1` , please look it up.
4.54

Given the entry `COc1ccc(CC(=O)Nc2ccsc2N2CCOC2=O)cc1` , what pIC50 was observed with Mitogen-activated protein kinase 10 (Homo sapiens, UniProt P53779)?
4.43

Hello, I am looking for reported pIC50 with Mitogen-activated protein kinase 10 (Homo sapiens, UniProt P53779) for `O=C(Cc1cccc2ccccc12)Nc1ccsc1-c1ncn[nH]1` . Could you help?
6.04

# query: pIC50 | item `COc1ccc(CC(=O)Nc2ccsc2-c2c[nH]c(C)n2)cc1` | system: Mitogen-activated protein kinase 10 (Homo sapiens, UniProt P53779)
4.57

What value of pIC50 on Mitogen-activated protein kinase 10 (Homo sapiens, UniProt P53779) does `O=C(Cc1cccc2cnccc12)Nc1scnc1-c1ncn[nH]1` have?
6.09

Recall the recorded pIC50 for `COc1ccc(CC(=O)Nc2ccsc2-c2cn(C)cn2)cc1` with Mitogen-activated protein kinase 10 (Homo sapiens, UniProt P53779) and state it.
4.51
